assay name: stimulators of nuclear beta-catenin in C2C12, primary screen, imaging, WNT3A-conditioned medium, mouse C2C12, NPC library (AID 1117326); further: reference of the scale not given here
assay setup: stimulation, at 2 µM, stronger effect = higher value
Measured nuclear beta-catenin stimulation by item
# value in %; strip the unit string

Here is how some compounds turned out for nuclear beta-catenin stimulation.
{"compound": "O=c1[nH]sc2cc(Cl)ccc12", "unit string": "%", "nuclear beta-catenin stimulation": 7.8}
{"compound": "CC1CCCCN1CCCOC(=O)c1ccc(OC2CCCCC2)cc1 (centres undefined)", "unit string": "%", "nuclear beta-catenin stimulation": 4.4}
{"compound": "S=c1nc[nH]c2nc[nH]c12", "unit string": "%", "nuclear beta-catenin stimulation": 0.6}
{"compound": "O[C@@H](c1cc(C(F)(F)F)nc2c(C(F)(F)F)cccc12)[C@H]1CCCCN1", "unit string": "%", "nuclear beta-catenin stimulation": 3.3}
{"compound": "CC(C)[N+](C)(C)CC(O)COc1cccc2ccccc12 (centres undefined)", "unit string": "%", "nuclear beta-catenin stimulation": -0.7}
{"compound": "NCC(=O)CCC(=O)O", "unit string": "%", "nuclear beta-catenin stimulation": -0.9}
{"compound": "Nc1ncn([C@@H]2O[C@H](CO)[C@@H](O)[C@H]2O)c(=O)n1", "unit string": "%", "nuclear beta-catenin stimulation": 1.8}
{"compound": "c1ccc(-c2ccc(C(c3ccccc3)n3ccnc3)cc2)cc1 (centres undefined)", "unit string": "%", "nuclear beta-catenin stimulation": 0.5}
{"compound": "CCCCNc1cc(C(=O)O)cc(S(N)(=O)=O)c1Oc1ccccc1", "unit string": "%", "nuclear beta-catenin stimulation": -0.1}
{"compound": "CN1CCN(CCCN2c3ccccc3Sc3ccc(C(F)(F)F)cc32)CC1", "unit string": "%", "nuclear beta-catenin stimulation": 0.2}

Please fill in: nuclear beta-catenin stimulation reported for COc1ccc2nc(NC(=O)Nc3ccccc3)sc2c1 = 0
